Data provenance: patent EP4818168A1

Measured half-life by item
assay: Mouse PK study; assay type: in vivo; details: mouse, plasma; PO 10 mg/kg, male CD1 mice
The answer is to be given in h; state only the numeric part.

compound: O=C1CCN(c2ccc(N3CCO[C@H](C(=O)N4CCN(c5ccc(Nc6ncc7c(n6)-c6ccc(Cl)cc6C(c6c(F)cccc6F)=NC7)cc5)CC4)C3)nc2)C(=O)N1
unit.abbrev: h
half-life: 2.41

As a next step, examine the compound that follows.
// query Consider the compound O=C1CCN(c2ccc(N3CCC4(CC3)CC(N3CCN(C56CC(Nc7ncc8c(n7)-c7ccc(Cl)cc7C(c7c(F)cccc7F)=NC8)(C5)C6)C(=O)C3)CO4)nc2)C(=O)N1 (centres unmarked) and give its measured half-life.
// result 2.13

----------
Target: AURKA (Homo sapiens, UniProt O14965)
Construct: endogenous in cells; host or cells: Jurkat cells
Sequence (O14965 1-403): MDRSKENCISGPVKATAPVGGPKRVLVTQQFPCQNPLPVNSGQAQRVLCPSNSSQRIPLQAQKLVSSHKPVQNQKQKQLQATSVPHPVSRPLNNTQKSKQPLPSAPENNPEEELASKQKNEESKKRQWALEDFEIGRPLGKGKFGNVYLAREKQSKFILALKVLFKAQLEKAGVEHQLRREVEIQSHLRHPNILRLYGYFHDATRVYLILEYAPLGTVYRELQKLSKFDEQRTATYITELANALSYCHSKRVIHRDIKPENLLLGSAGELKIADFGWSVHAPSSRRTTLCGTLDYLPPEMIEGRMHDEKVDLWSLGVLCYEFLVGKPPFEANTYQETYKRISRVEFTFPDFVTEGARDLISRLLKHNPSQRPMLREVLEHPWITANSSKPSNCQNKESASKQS
Assay type: cell-based
Conditions: 1 µM compound, Jurkat cells, 24 h, Table 2
endpoint.name: Percentage of AURKA Degradation Induced by 1 µM Compound in Jurkat Cells

compound: O=C1CCN(c2ccc(N3CCC(N4CCN(c5ccc(Nc6ncc7c(n6)-c6ccc(Cl)cc6C(c6c(F)cccc6F)=NC7)cc5)C5(COC5)C4)CC3)nc2)C(=O)N1 [Compound A233]
observed.measurement: +++ (Degradation > 70%)

compound: O=C1CCN(c2ccc(N3CCC(C4CCN(C(=O)C56CC(Nc7ncc8c(n7)-c7ccc(Cl)cc7C(c7c(F)cccc7F)=NC8)(C5)C6)CC4)CC3)nc2)C(=O)N1 [Compound A273]
observed.measurement: +++ (Degradation > 70%)

compound: O=C1CCN(c2cccc(N3CCN(CCOc4cccc(Nc5ncc6c(n5)-c5ccc(Cl)cc5C(c5c(F)cccc5F)=NC6)c4)CC3)c2)C(=O)N1 [Compound A125]
observed.measurement: +++ (Degradation > 70%)

compound: O=C1CCN(c2ccc(N3CCC(CN4CCN(C56CC(Nc7ncc8c(n7)-c7ccc(Cl)cc7C(c7c(F)cccc7F)=NC8)(C5)C6)C(=O)C4)CC3)nc2)C(=O)N1 [Compound A250]
observed.measurement: +++ (Degradation > 70%)

// query Reported Percentage of AURKA Degradation Induced by 1 µM Compound in Jurkat Cells for AURKA (Homo sapiens, UniProt O14965), given O=C1CCN(c2ccc(N3CCC4(CC3)C[C@H](N3CCN(c5ccc(Nc6ncc7c(n6)-c6ccc(Cl)cc6C(c6c(F)cccc6F)=NC7)cc5)CC3)CO4)nc2)C(=O)N1 [Compound A342] ?
// result +++ (Degradation > 70%)

// query Reported Percentage of AURKA Degradation Induced by 1 µM Compound in Jurkat Cells for AURKA (Homo sapiens, UniProt O14965), given O=C1CCN(c2ccc([C@H]3C[C@@H](N4CC(NC(=O)c5ccc(Nc6ncc7c(n6)-c6ccc(Cl)cc6C(c6c(F)cccc6F)=NC7)cc5)C4)C3)nc2)C(=O)N1 [Compound A114] ?
// result +++ (Degradation > 70%)

// query Reported Percentage of AURKA Degradation Induced by 1 µM Compound in Jurkat Cells for AURKA (Homo sapiens, UniProt O14965), given O=C1CCN(c2ccc(N3CCC(N4CCN(c5ccc(Nc6ncc7c(n6)-c6ccc(Cl)cc6C(c6c(F)cccc6F)=NC7)cc5)CC4)C(F)(F)C3)nc2)C(=O)N1 (centres unmarked) [Compound A263] ?
// result +++ (Degradation > 70%)

// query Reported Percentage of AURKA Degradation Induced by 1 µM Compound in Jurkat Cells for AURKA (Homo sapiens, UniProt O14965), given CP(C)(=O)c1ccc2c(c1)C(c1c(F)cccc1F)=NCc1cnc(Nc3ccc(N4CC(CN5CCN(c6ccc(N7CCC(=O)NC7=O)cn6)CC5)C4)cc3)nc1-2 [Compound A269] ?
// result +++ (Degradation > 70%)

// query Reported Percentage of AURKA Degradation Induced by 1 µM Compound in Jurkat Cells for AURKA (Homo sapiens, UniProt O14965), given O=C1CCN(c2ccc(N3CCC4(CC3)CC(NC(=O)c3ccc(Nc5ncc6c(n5)-c5ccc(Cl)cc5C(c5ccccn5)=NC6)cc3)C4)nc2)C(=O)N1 [Compound A128] ?
// result +++ (Degradation > 70%)

----------
Target: AURKA (Homo sapiens, UniProt O14965)
Construct: endogenous in cells; host or cells: Jurkat cells
Assay type: cell-based
Conditions: 1 µM compound, Jurkat cells, 24 h, Table 1
Source text: WB is a classical biochemical experimental method used to detect the abundance of a target protein in a sample of cells or biological tissue. It relies on specific antigen-antibody binding to detect protein signals from the sample processed by gel electrophoresis: the protein specifically binds to a primary antibody at an epitope; the primary antibody is then conjugated with a secondary antibody to amplify the signal cascade; the signal is read out by chemiluminescent or fluorescent detection. […]
endpoint.name: Percentage of AURKA Degradation Induced by 1 µM Compound in Jurkat Cells

Examples from the recorded data:
compound: COc1cc(Nc2ncc3c(n2)-c2ccc(Cl)cc2C(c2c(F)cccc2OC)=NC3)ccc1C(=O)NC1CCC2(CC1)CN(c1ccc(N3CCC(=O)NC3=O)cc1)C2 [Compound A57]
observed.measurement: +++ (Degradation > 70%)

compound: O=C1CCN(c2ccc(N3CC4(CCN(C(=O)c5ccc(Nc6ncc7c(n6)-c6ccc(Cl)cc6C(c6c(F)cccc6F)=NC7)cc5)C4)C3)cc2)C(=O)N1 [Compound A43]
observed.measurement: + (Degradation ≤ 30%)

compound: COc1cc(Nc2ncc3c(n2)-c2ccc(Cl)cc2C(c2c(F)cccc2OC)=NC3)ccc1C(=O)N(C)C1CC2(CCN(c3ccc(N4CCC(=O)NC4=O)cc3)CC2)C1 [Compound A40]
observed.measurement: + (Degradation ≤ 30%)

compound: O=C1CCN(c2ccc(N3CCC4(CC3)CC(NC(=O)c3ccc(Nc5ncc6c(n5)-c5ccc(Cl)cc5C(c5c(F)cccc5F)=NC6)cc3)C4)nc2)C(=O)N1 [Compound A55]
observed.measurement: +++ (Degradation > 70%)

// query Consider the compound COc1cc(Nc2ncc3c(n2)-c2ccc(Cl)cc2C(c2c(F)cccc2OC)=NC3)ccc1C(=O)O [alisertib, reference compound] and give its measured Percentage of AURKA Degradation Induced by 1 µM Compound in Jurkat Cells.
// result + (Degradation ≤ 30%)

// query Consider the compound O=C1CCN(c2ccc(N3CC4(CC(NC(=O)c5ccc(Nc6ncc7c(n6)-c6ccc(Cl)cc6C(c6c(F)cccc6F)=NC7)cc5)C4)C3)nc2)C(=O)N1 [Compound A60] and give its measured Percentage of AURKA Degradation Induced by 1 µM Compound in Jurkat Cells.
// result +++ (Degradation > 70%)

// query Consider the compound COc1cc(Nc2ncc3c(n2)-c2ccc(Cl)cc2C(c2c(F)cccc2OC)=NC3)ccc1C(=O)NCCN1CCC(n2cnc(N3CCC(=O)NC3=O)c2)CC1 [Compound A23] and give its measured Percentage of AURKA Degradation Induced by 1 µM Compound in Jurkat Cells.
// result + (Degradation ≤ 30%)

// query Consider the compound O=C1CCN(c2ccc(N3CCN(CCNC(=O)c4ccc(Nc5ncc6c(n5)-c5ccc(Cl)cc5C(c5c(F)cccc5F)=NC6)cc4)CC34CC4)nc2)C(=O)N1 [Compound A66] and give its measured Percentage of AURKA Degradation Induced by 1 µM Compound in Jurkat Cells.
// result + (Degradation ≤ 30%)

// query Consider the compound COc1cccc(F)c1C1=NCc2cnc(Nc3ccc(C(=O)NC4CN(CC5CN(c6ccc(N7CCC(=O)NC7=O)cc6)C5)C4)cc3)nc2-c2ccc(Cl)cc21 [Compound A71] and give its measured Percentage of AURKA Degradation Induced by 1 µM Compound in Jurkat Cells.
// result +++ (Degradation > 70%)

// query Consider the compound COc1cc(Nc2ncc3c(n2)-c2ccc(Cl)cc2C(c2c(F)cccc2OC)=NC3)ccc1C(=O)N1CC2(CCN(c3ccc(N4CCC(=O)NC4=O)cc3)CC2)C1 [Compound A42] and give its measured Percentage of AURKA Degradation Induced by 1 µM Compound in Jurkat Cells.
// result + (Degradation ≤ 30%)

// query Consider the compound O=C1CCN(c2ccc(N3CCN(C4CN(C(=O)c5ccc(Nc6ncc7c(n6)-c6ccc(Cl)cc6C(c6c(F)cccc6F)=NC7)cc5)C4)CC3)cc2)C(=O)N1 [Compound A19] and give its measured Percentage of AURKA Degradation Induced by 1 µM Compound in Jurkat Cells.
// result + (Degradation ≤ 30%)

// query Consider the compound COc1cccc(F)c1C1=NCc2cnc(Nc3ccc(C(=O)NC4CN(CC5CN(c6cccc(N7CCC(=O)NC7=O)c6)C5)C4)cc3)nc2-c2ccc(Cl)cc21 [Compound A73] and give its measured Percentage of AURKA Degradation Induced by 1 µM Compound in Jurkat Cells.
// result +++ (Degradation > 70%)

// query Consider the compound COc1cc(Nc2ncc3c(n2)-c2ccc(Cl)cc2C(c2c(F)cccc2OC)=NC3)ccc1C(=O)NCCN1CCN(c2cccn3c(N4CCC(=O)NC4=O)cnc23)CC1 [Compound A21] and give its measured Percentage of AURKA Degradation Induced by 1 µM Compound in Jurkat Cells.
// result +++ (Degradation > 70%)

// query Consider the compound COc1cccc(F)c1C1=NCc2cnc(Nc3ccc(C(=O)NCCN4CCN(c5ccc(N6CCC(=O)NC6=O)cn5)C5(CC5)C4)cc3)nc2-c2ccc(Cl)cc21 [Compound A67] and give its measured Percentage of AURKA Degradation Induced by 1 µM Compound in Jurkat Cells.
// result + (Degradation ≤ 30%)

// query Consider the compound COc1cc(Nc2ncc3c(n2)-c2ccc(Cl)cc2C(c2c(F)cccc2OC)=NC3)ccc1C(=O)NCCOCCNc1ccn2c(N3CCC(=O)NC3=O)cnc2c1 [Compound A32] and give its measured Percentage of AURKA Degradation Induced by 1 µM Compound in Jurkat Cells.
// result + (Degradation ≤ 30%)

// query Consider the compound COc1cc(Nc2ncc3c(n2)-c2ccc(Cl)cc2C(c2c(F)cccc2OC)=NC3)ccc1C(=O)NC1CC2(CCN(c3ncc(N4CCC(=O)NC4=O)s3)CC2)C1 [Compound A80] and give its measured Percentage of AURKA Degradation Induced by 1 µM Compound in Jurkat Cells.
// result +++ (Degradation > 70%)
